- System Under Test: α4β1 integrin (Homo sapiens, UniProt P05556+P13612)
- Sequence (P13612 34-1032): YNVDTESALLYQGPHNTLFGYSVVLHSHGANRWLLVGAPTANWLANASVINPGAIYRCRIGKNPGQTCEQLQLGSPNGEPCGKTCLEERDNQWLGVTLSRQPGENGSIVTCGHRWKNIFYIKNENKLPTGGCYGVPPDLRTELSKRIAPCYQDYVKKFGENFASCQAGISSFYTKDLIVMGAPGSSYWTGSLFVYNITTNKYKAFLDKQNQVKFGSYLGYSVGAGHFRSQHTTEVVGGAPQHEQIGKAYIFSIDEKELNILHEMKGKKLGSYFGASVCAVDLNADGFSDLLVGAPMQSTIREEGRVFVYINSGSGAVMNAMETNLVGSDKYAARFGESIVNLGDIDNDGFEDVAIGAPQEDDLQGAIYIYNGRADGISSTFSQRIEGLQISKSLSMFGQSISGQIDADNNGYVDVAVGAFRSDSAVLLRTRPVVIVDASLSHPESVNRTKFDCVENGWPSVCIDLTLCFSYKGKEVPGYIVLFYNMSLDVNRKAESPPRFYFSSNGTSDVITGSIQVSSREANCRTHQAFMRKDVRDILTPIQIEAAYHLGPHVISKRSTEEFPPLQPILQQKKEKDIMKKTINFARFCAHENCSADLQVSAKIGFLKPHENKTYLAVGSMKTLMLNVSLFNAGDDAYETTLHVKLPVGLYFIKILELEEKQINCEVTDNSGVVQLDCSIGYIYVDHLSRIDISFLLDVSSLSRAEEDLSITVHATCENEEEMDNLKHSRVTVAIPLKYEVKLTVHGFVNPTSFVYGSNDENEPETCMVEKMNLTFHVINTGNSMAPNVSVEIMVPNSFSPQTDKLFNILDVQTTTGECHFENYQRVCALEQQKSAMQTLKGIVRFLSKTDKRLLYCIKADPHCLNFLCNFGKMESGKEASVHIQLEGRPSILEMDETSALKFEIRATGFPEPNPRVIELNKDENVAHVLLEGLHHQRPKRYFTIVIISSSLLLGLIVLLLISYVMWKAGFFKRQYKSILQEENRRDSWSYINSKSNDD
- Sequence (P05556 21-798): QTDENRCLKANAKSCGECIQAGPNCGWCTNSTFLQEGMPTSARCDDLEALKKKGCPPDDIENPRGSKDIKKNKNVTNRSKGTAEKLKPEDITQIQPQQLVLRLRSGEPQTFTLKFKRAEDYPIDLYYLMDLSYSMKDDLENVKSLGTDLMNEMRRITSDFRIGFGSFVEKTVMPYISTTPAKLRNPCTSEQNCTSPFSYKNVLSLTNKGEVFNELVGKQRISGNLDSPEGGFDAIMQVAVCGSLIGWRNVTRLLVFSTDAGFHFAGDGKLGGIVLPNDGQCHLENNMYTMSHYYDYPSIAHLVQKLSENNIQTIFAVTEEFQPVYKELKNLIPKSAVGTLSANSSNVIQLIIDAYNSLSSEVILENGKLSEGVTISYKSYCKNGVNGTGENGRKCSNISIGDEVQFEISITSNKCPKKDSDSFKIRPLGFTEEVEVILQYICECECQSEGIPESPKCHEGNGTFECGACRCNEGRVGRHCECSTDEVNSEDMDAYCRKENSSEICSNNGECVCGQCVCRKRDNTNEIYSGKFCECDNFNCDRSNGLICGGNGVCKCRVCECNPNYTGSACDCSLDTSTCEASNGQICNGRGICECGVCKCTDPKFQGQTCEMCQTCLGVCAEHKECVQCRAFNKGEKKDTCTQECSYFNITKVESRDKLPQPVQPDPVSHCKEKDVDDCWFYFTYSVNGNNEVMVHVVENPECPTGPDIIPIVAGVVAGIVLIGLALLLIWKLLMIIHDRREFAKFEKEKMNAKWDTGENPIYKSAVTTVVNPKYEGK
- Experiment Description: Inhibition of α4β1 dependent adhesion of 8A2 stimulated Ramos cells to IIICS-GST
- Format: cell-based
- Parameters: endogenous in cells; host or cells: Ramos cells
- Condition Description: Ramos cells activated with mAb 8A2, preincubated with peptide, result in words
Endpoint Label: inhibition of adhesion of 8A2 stimulated Ramos cells to IIICS-GST

Qu. I am curious: what inhibition of adhesion of 8A2 stimulated Ramos cells to IIICS-GST value has been reported for WQPPRARYI (listed as Homo sapiens) [SEQ ID NO:36] ?
Ans. inactive

Qu. I am curious: what inhibition of adhesion of 8A2 stimulated Ramos cells to IIICS-GST value has been reported for WQPIYPRAR (listed as Homo sapiens) [SEQ ID NO:35] ?
Ans. inactive

Qu. I am curious: what inhibition of adhesion of 8A2 stimulated Ramos cells to IIICS-GST value has been reported for IYWQPPRAR (listed as Homo sapiens) [SEQ ID NO:34] ?
Ans. inactive
